Item-by-item account of IC50
test system: cGAS activity in THP1 cells (IFNb as marker); experiment: Cellular assay to measure cGAS activity (IFNb production in PMA-differentiated THP1 cells stimulated by RDG-Adenovirus-GFP); assay type: cell-based, human; details: Homo sapiens, THP-1, THP1 cells, PMA differentiated, RDG-Adenovirus-GFP 1000 MOI, IFNb AlphaLISA, overnight incubation; read-out: IC50 (μM), Cellular assay for Compounds 95-348
Counter-ions that a name gives are not always drawn.
PROPERTY MEASURED: IC50 (µM)

>  <MOLECULE>
OCC(O)CNc1cc(Cl)c(Cl)c2[nH]cc(-c3cn[nH]c3)c12 (single isomer, unassigned)

>  <EXPERIMENTAL TARGET>
cGAS activity in THP1 cells (IFNb as marker)

>  <REPORTED RELATION>
=

>  <RESULT VALUE>
2.34

$$$$
>  <MOLECULE>
O=C(NC1CCc2c(-c3cn[nH]c3)c3ccc(Cl)c(Cl)c3n2C1)C1CCOCC1 (stereo not shown)

>  <EXPERIMENTAL TARGET>
cGAS activity in THP1 cells (IFNb as marker)

>  <REPORTED RELATION>
=

>  <RESULT VALUE>
2.43

$$$$
>  <MOLECULE>
O=C(Nc1cc(Cl)c(F)c2c1c(-c1cn[nH]c1)cn2-c1cn(CCO)nn1)C(F)F

>  <EXPERIMENTAL TARGET>
cGAS activity in THP1 cells (IFNb as marker)

>  <REPORTED RELATION>
=

>  <RESULT VALUE>
0.651

$$$$
>  <MOLECULE>
O=C1CC(CC(=O)N2CCn3c(c(-c4cn[nH]c4)c4c(NC(=O)C(F)F)cc(Cl)c(Cl)c43)C2)CCN1 (stereo not shown)

>  <EXPERIMENTAL TARGET>
cGAS activity in THP1 cells (IFNb as marker)

>  <REPORTED RELATION>
>

>  <RESULT VALUE>
10

$$$$
>  <MOLECULE>
OC[C@@H]1C[C@@H]1Oc1cc(Cl)c(Cl)c2[nH]cc(-c3cn[nH]c3)c12 (racemic) [Example 137, hydrochloride]

>  <EXPERIMENTAL TARGET>
cGAS activity in THP1 cells (IFNb as marker)

>  <REPORTED RELATION>
=

>  <RESULT VALUE>
1.38

$$$$
>  <MOLECULE>
Clc1ccc2c(-c3cn[nH]c3)cn(-c3c[nH]nn3)c2c1

>  <EXPERIMENTAL TARGET>
cGAS activity in THP1 cells (IFNb as marker)

>  <REPORTED RELATION>
=

>  <RESULT VALUE>
2.27

$$$$
>  <MOLECULE>
N#CCOc1cc(Cl)c(Cl)c2c1c(-c1cn[nH]c1)c1n2CCN(C(=O)Cn2cncn2)C1

>  <EXPERIMENTAL TARGET>
cGAS activity in THP1 cells (IFNb as marker)

>  <REPORTED RELATION>
=

>  <RESULT VALUE>
5.11

$$$$

---

Item-by-item account of log10(IC50)
tested on: cGAS activity in THP1 cells (IFNb as marker); assay: Cellular assay to measure cGAS activity (IFNb production in PMA-differentiated THP1 cells stimulated by RDG-Adenovirus-GFP); format: cell-based, human; settings: Homo sapiens, THP-1, THP1 cells, PMA differentiated, RDG-Adenovirus-GFP 1000 MOI, IFNb AlphaLISA, overnight incubation; read-out: IC50 (μM), Cellular assay for Compounds 95-348
PROPERTY MEASURED: log10(IC50) (log10 of the value in µM)

>  <MOLECULE>
CC(=O)N[C@H]1Cc2c(-c3cn[nH]c3)c3c(OCC#N)cc(Cl)c(Cl)c3n2C1

>  <log10(IC50)>
-0.06

$$$$
>  <MOLECULE>
O=C(Nc1cc(Cl)c(Cl)c2[nH]nc(-c3cn[nH]c3)c12)C(F)F

>  <log10(IC50)>
-0.55

$$$$
>  <MOLECULE>
CC(=O)NCC(=O)NC1CCc2c(-c3cn[nH]c3)c3ccc(Cl)c(Cl)c3n2C1 (centres unmarked)

>  <log10(IC50)>
0.75

$$$$
>  <MOLECULE>
CN(C)C(=O)CC(=O)N1CCn2c(c(-c3cn[nH]c3)c3ccc(Cl)c(Cl)c32)C1

>  <log10(IC50)>
0.84

$$$$
>  <MOLECULE>
CC(=O)NCc1c(-c2cn[nH]c2)c2ccc(Cl)c(Cl)c2n1C

>  <log10(IC50)>
0.20

$$$$
>  <MOLECULE>
O=C(Nc1cc(Cl)c(Cl)c2[nH]cc(-c3cn[nH]c3)c12)C(F)F

>  <log10(IC50)>
-1.16

$$$$
>  <MOLECULE>
C[C@@H](O)C(=O)NCc1[nH]c2c(Cl)c(Cl)ccc2c1-c1cn[nH]c1

>  <log10(IC50)>
0.27

$$$$
>  <MOLECULE>
CCNc1cc(Cl)c(Cl)c2[nH]cc(-c3cn[nH]c3)c12

>  <log10(IC50)>
0.28

$$$$
